Attribute: protein stability index
B1: CHCHD6 (parent)
chain: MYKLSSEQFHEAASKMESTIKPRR

Variants of: B1
Assay: protein stability index of a GFP-peptide fusion (GPS, HEK-293T) (PSI 1-6); higher = more stable;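 note: lentivirally expressed fusions sorted by FACS into six bins by GFP to DsRed ratio, PSI derived from sequencing read proportions per bin multiplied by bin number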
Settings: c terminus: a fixed tail appended

Here are 4 variants together with their reported answers.
L4K = 4.49
S14Q = 4.24
R24G = 3.39
P22V = 3.6

Determine from records and report protein stability index for S18G 3.7

Determine from records and report protein stability index for E11P 3.6

Determine from records and report protein stability index for T19L 3.67

Determine from records and report protein stability index for A13P 3.81

Determine from records and report protein stability index for S14E 4.12

Determine from records and report protein stability index for M16H 4.44

Determine from records and report protein stability index for E17D 4

Determine from records and report protein stability index for L4C 3.29
